- systemUnderTest: T1, Peptide B (human PAR-2), unbiotinylated (Human)
- T1 construct: also called Peptide B No Biotin
- T1 peptide: SLIGKVDGTSHVTG
- assayOverview: peptide ELISA
measure: OD450

- binder: "H2M588N (antibody, V domains shown, chimeric: human variable, mouse constant domains) VH: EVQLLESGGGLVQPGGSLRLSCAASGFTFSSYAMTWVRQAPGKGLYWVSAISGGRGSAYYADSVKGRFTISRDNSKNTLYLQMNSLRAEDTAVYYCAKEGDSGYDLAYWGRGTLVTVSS VL: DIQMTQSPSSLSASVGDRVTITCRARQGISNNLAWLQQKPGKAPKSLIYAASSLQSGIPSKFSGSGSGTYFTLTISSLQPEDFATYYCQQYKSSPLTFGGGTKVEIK"
  measure: "OD450"
  value: "1 to 4 od"
- binder: "H2M589N (antibody, V domains shown, chimeric: human variable, mouse constant domains) VH: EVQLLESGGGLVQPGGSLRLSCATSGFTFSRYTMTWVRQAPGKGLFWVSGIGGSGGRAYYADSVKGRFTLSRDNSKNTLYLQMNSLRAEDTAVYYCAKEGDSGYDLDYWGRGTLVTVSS VL: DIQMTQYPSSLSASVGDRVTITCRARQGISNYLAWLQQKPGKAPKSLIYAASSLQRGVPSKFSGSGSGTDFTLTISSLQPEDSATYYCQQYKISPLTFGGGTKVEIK"
  measure: "OD450"
  value: "1 to 4 od"
- binder: "H2M609N (antibody, V domains shown, chimeric: human variable, mouse constant domains) VH: EVQLVESGGGLVQPGRSLRLSCAASGFTFDDYAMHWVRQAPGKGLEWVSGISWNSGSKGFADSVKGRFTISRDNAKNSLYLQMNSLRVEDTALYYCAKENWSFDYWGQGTLVTVSS VL: DIVMTQTPLSSPVTLGQPASISCRSSQSLVHSDGNIYLSWLQQRPGQPPRLLIYKISNRFSGVPDRFSGSGAGTDFTLKISRVEAEDVGIYYCMQASHFPYTFGQGTKLEIK"
  measure: "OD450"
  value: "0 to 0.09 od"
- binder: "H1M616N (antibody, V domains shown, chimeric: human variable, mouse constant domains) VH: EVQLVESGGGLAQPGRSLRVSCSASGFNFDDYAMHWVRQAPGKGLEWVSGISWNSGSRGYADSVKGRFTISRDNAKNSLYLQMNSLRAEDTALYYCVKENWAFEYWGQGTLVTVSS VL: DIVMTQTPLSSPVTLGQPASISCRSSHSLVHSDGSTYLSWLQQRPGQPPRLLIYKISNRFSGVPDRFSGSGAGTDFTLKISRVEAEDVGLYYCMQATQFPYTFGQGTKLEIK"
  measure: "OD450"
  value: "0 to 0.09 od"
- binder: "H2M591N (antibody, V domains shown, chimeric: human variable, mouse constant domains) VH: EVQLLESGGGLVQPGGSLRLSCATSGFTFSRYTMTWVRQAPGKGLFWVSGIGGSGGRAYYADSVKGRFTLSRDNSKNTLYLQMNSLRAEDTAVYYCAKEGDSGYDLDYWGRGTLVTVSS VL: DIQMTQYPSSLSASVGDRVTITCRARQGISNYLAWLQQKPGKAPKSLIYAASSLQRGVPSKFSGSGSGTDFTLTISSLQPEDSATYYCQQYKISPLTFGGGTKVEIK"
  measure: "OD450"
  value: "1 to 4 od"

The origin of these recorded values is patent US20110059095A1.
